// provenance: patent US20240327417A1

The following compounds have recorded pIC50 on Full length DGKα (D21-10BG, SignalChem) (Homo sapiens, UniProt P23743).
Sequence (P23743 whole entry): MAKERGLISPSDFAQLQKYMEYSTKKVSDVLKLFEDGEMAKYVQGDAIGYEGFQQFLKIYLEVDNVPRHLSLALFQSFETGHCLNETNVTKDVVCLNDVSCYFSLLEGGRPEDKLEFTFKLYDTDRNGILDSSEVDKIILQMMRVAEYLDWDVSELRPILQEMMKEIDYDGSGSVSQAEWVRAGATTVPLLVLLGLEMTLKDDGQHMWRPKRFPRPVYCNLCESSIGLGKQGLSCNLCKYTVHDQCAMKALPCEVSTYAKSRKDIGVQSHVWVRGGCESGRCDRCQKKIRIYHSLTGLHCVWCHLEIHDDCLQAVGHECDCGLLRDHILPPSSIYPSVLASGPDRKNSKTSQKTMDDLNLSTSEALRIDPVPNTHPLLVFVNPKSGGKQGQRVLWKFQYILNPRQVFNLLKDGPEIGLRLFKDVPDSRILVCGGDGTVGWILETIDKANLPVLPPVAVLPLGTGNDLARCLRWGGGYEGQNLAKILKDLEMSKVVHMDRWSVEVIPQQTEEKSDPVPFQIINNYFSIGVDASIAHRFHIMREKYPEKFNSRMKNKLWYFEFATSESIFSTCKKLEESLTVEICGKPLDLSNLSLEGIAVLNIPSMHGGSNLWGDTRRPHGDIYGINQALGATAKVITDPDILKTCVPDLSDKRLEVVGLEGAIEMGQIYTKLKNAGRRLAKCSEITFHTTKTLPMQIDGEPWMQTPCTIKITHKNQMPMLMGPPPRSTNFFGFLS
pIC50: −log10 of the molar value.

| compound | pIC50 |
| --- | --- |
| CC[C@H]1CN(C(C)c2ccc(C3CC3(F)F)nc2)[C@H](CC)CN1c1cc(=O)n(C)n2cc(CC#N)nc12 (single isomer, unassigned) [Compound A70a] | 6.99 |
| CC[C@@H]1CN(c2c(C#N)c(=O)n(C)n3cc(CC#N)nc23)[C@@H](C)CN1C(C)c1ccc2nc(C)sc2n1 (single isomer, unassigned) [Compound A113b] | 6.19 |
| CC[C@H]1CN(C(C)c2ccc3ncsc3c2)[C@H](CC)CN1c1cc(=O)n(C)n2cc(CC#N)nc12 (single isomer, unassigned) [Compound A53b] | 6.63 |
| CC[C@H]1CN(C(C)c2ccc3cc(F)sc3n2)[C@H](CC)CN1c1cc(=O)n(C)n2cc(CC#N)nc12 (single isomer, unassigned) [Compound A105a] | 6.71 |
| [2H]C([2H])([2H])c1nc2ccc(C(C)N3C[C@H](CC)N(c4cc(=O)n(C([2H])([2H])[2H])n5cc(CC#N)nc45)C[C@H]3CC)cc2s1 (single isomer, unassigned) [Compound A97b] | 5.94 |
